Tested on: PC-3 prostate
test-protocol: NCI-60 one-dose screen, 48 h (100 = growth as untreated, 0 = no growth, -100 = all killed)
conditions-used: 10 µM unless noted
This is part of a sample that, as a whole, favours compounds with a hit. Of some 83,000 tested, about 20% had one in any assay. Active and inactive are the calls of the source. How the source made its calls: active means growth percent below 10; inactive means the rest.
Each entry below carries its recorded growth.

molecule: Nc1nc(N)c2c(n1)NC(c1ccccc1)C1CCc3ccccc3C1=N2 (stereo not given)
growth: 40.8% (inactive)

molecule: CCC(CO)Nc1nc2ccc(Cl)cc2c2ccccc12 (stereo not given)
growth: 59.5% (inactive)

Task: Which growth reading was recorded for the molecule CCCCCCCCn1ccc2cc(NC(=O)Cn3cc(CN4CCCC4)nn3)ccc21 ?
Result: 64.9% (inactive)

Task: Please look up its growth: Cc1ccc(C(=NN=C(N)N)c2ccc(C)cc2)cc1
Result: 16.3% (inactive)

Task: Quick check: growth of Cc1ccc(S(=O)(=O)n2cc(CNc3ccc(N4CCOCC4=O)cc3)c3ccccc32)cc1 ?
Result: 89.6% (inactive)

* * *

Tested on: IGROV1 ovarian
test-protocol: NCI-60 one-dose screen, 48 h (100 = growth as untreated, 0 = no growth, -100 = all killed)
conditions-used: 10 µM unless noted
About 83,000 compounds went through this panel and 20% of them were active in at least one assay; those are over-represented in the sample as a whole.
measurement-type: growth (%)
Number in %, nothing else.

compound: CC1(C)CC(=O)CC2(C1)N=C(N)Nc1nc3ccccc3n12 (stereo not drawn)
test-system: IGROV1 ovarian
display-unit: %
growth: 90.5
--
compound: O=C1N=c2cc3c(cc2=C/C1=C/c1sc(=S)n(CCc2ccc(O)cc2)c1O)OCCO3
test-system: IGROV1 ovarian
display-unit: %
growth: 49

Task: Which growth is listed for COc1ccc(NC(=O)CSc2nnc(-c3cc(-c4ccccc4)nc4ccccc34)n2-c2ccccc2)cc1 ?
Result: 92.5

* * *

System: K-562 leukemia
test-protocol: NCI-60 one-dose screen, 48 h
conditions-used: 10 µM unless noted
This is part of a sample that, as a whole, favours compounds with a hit. Of some 83,000 tested, about 20% had one in any assay. Activity calls are given as the source filed them. Rule for the calls: active = growth percent below 10; inactive = the rest.
Your response should consist of one outcome taken from class 1 = active, class 0 = inactive

As a guide, the following entries are already answered.
molecule: N/C(=N\c1nc2ccccc2s1)NC(=O)Nc1cccc(Cl)c1
test-system: K-562 leukemia
category: class 0
//
molecule: COc1ccc(/C=C/c2c(C(=O)/C=C/c3cccs3)c(C)nc3ccccc23)cc1
test-system: K-562 leukemia
category: class 0
//
molecule: C=C1C(=O)O[C@H]2[C@H]1CC/C(COC(=O)C(=O)c1c[nH]c3ccccc13)=C\CC[C@@]1(C)O[C@@H]21
test-system: K-562 leukemia
category: class 1
//
molecule: CCCCCCCCCCN(CCCCCCCCCC)CC(=O)c1ccc2cc(Br)c3ccccc3c2c1
test-system: K-562 leukemia
category: class 1
//
molecule: N#CC1=C(NC=O)Oc2c(ccc3ccccc23)C1c1ccccc1 (centres undefined)
test-system: K-562 leukemia
category: class 0
//
molecule: Cc1c(C(=O)NC(Cc2ccccc2)C(O)C(=O)NCc2ccc(F)cc2)[nH]c2ccccc2c1=O (centres undefined)
test-system: K-562 leukemia
category: class 0

Task: So what was the verdict on CC(C)(C)C(CCc1ccc(Cl)cc1)N1CCN(C2CCCCC2)CC1 (centres undefined) in this test?
Result: class 1

Task: Fill in: this test's call for COc1cc(C2CC(=O)Nc3c2c(C)nn3-c2nc3ccccc3[nH]2)c(OC)c2c1OCO2 (centres undefined) is ___
Result: class 0

Task: Status in this test for c1coc(-c2c3ccc(=[N+]4CCCCC4)cc-3oc3cc(N4CCCCC4)ccc23)c1 ?
Result: class 1

Task: Dear colleague, could you share the recorded outcome for COc1ccc2cc(-c3cc(OC)c(OC)c(OC)c3)c(=O)oc2c1 when you have a moment?
Result: class 0

Task: Outcome logged for Cc1ccc(/C=C/c2c(C(=O)/C=C/c3ccc(Cl)cc3)c(C)nc3ccccc23)cc1 in this assay:
Result: class 1

Task: Returns: the outcome recorded for O=c1oc2ccccc2c(Cl)c1Cl in this assay.
Result: class 0

Task: Kindly provide the recorded test outcome for the following molecule: CCCCNC(=O)Oc1ccc2c(=O)c3sc4c(=O)c5ccccc5c(=O)c4c3c(=O)c2c1
Result: class 1

Task: Check the results log: what was the call for Fc1cnc(NC2CC2)nc1-c1cnc2ccc(N3CCOCC3)cn12 ?
Result: class 0

Task: Fill in: this test's call for CC1(C)CC[C@]2(C(=O)N3CCOCC3)CC[C@]3(C)C(=CC[C@@H]4[C@@]5(C)CC[C@H](OC(=O)c6cccnc6)C(C)(C)[C@@H]5CC[C@]43C)[C@@H]2C1 is ___
Result: class 0

Task: Record lookup: outcome of this test for COc1cc(/C=C/C(=O)N2CCN(C(=O)c3cc(OC)c(OC)c(OC)c3)CC2)ccc1OCCCN1C(=O)c2cccc3cccc(c23)C1=O ?
Result: class 0

Task: Answer briefly: the call reported for CCN(CC)S(=O)(=O)c1cccc(-c2ccc3c(NC(=O)C4CC4)n[nH]c3c2)c1 in this assay.
Result: class 1

Task: Status in this test for CC(C)CC(NC(=O)CN(Cc1ccccc1)S(C)(=O)=O)C(=O)O (centres undefined) ?
Result: class 0

Task: Hey, what did the test say about CCCCCCCOc1c(OC)cc(C2CC(=O)Nc3c2c(C)nn3-c2nc3ccccc3[nH]2)cc1OC (centres undefined) ?
Result: class 0

Task: Tell me the recorded outcome of this test for COc1ccc(C2c3ccc4ccccc4c3Oc3nc(C)[nH]c(=O)c32)cc1 (centres undefined) .
Result: class 0

Task: Query: recorded result category for N#Cc1c(N)nc2c(C#N)c(NC(=O)c3ccccc3)nn2c1-c1ccccc1 in this test
Result: class 0

Task: GET /call?item= CC1SC(c2ccc(OCc3ccccc3)cc2)N(NC(=O)C(O)(c2ccccc2)c2ccccc2)C1=O (centres undefined) returns the recorded outcome of this test.
Result: class 0

Task: Dear all, I need the recorded test outcome for O=Cc1ccc(O)c2ncccc12 , thank you.
Result: class 1

* * *

System: HS 578T breast
test-protocol: NCI-60 one-dose screen, 48 h (100 = growth as untreated, 0 = no growth, -100 = all killed)
conditions-used: 10 µM unless noted
The panel holds about 83,000 compounds, 20% with a hit somewhere; the sample as a whole holds those more often.
In this section we review reported growth values for a set of compounds.
State the answer as a number, implicitly in %.

See these solved cases before continuing.
compound: Cc1ccc2c(c1)Sc1c(ccc3ccccc13)N2
display-unit: %
measurement: 66.4
--
compound: Nc1nc(N)c2c(n1)NC(c1ccccc1)C1CCc3ccccc3C1=N2 (stereo not given)
display-unit: %
measurement: 71.2
--
compound: COc1ccc(C2c3ccc4ccccc4c3Oc3nc(C)[nH]c(=O)c32)cc1 (stereo not given)
display-unit: %
measurement: 96.3

Task: Dear colleague, I am looking for the recorded growth of the following compound: C=CCn1c(C)nc2cc(Nc3nc(N4CCCC4)nc4ccccc34)ccc21
Result: 86.8

Task: For the compound COc1cccc(Nc2nccc(Nc3ccc4[nH]ncc4c3)n2)c1 , what growth is on record?
Result: 23.9

* * *

Tested on: NCI-H522 lung
test-protocol: NCI-60 one-dose screen, 48 h (100 = growth as untreated, 0 = no growth, -100 = all killed)
conditions-used: 10 µM unless noted
Protocol: Growth inhibition of the NCI-H522 human Non-Small Cell Lung tumor cell line is measured as a screen for anti-cancer activity. Cells are grown in 96 well plates and exposed to the test compound for 48 hours. Compounds are tested at a single concentration, which is 10^-5 M for most compounds. The reported endpoint is percent growth (GI% or GIPRCNT), where numbers from 0 - 100% represent growth inhibition, and numbers from -100% - 0 represent cell death. […]
Compounds without any hit were thinned out: in the full panel of roughly 83,000, 20% have a hit.
measurement-type: growth (%)
Give just the numeric value; % need not be written.

Solved entries:
molecule: COC(=O)[C@]12CC[C@@H](C)[C@H](C)[C@@H]1C1=CC[C@@H]3[C@@]4(C)C(C=O)=C[C@@](C)(COC(C)=O)[C@@H]4[C@H](O)C[C@@]3(C)[C@]1(C)CC2
display-unit: %
measurement: -35
//
molecule: O=S(=O)(NCCCNc1cc(-c2c(-c3cccc(O)c3)nc3sccn23)ccn1)c1cccc(Cl)c1
display-unit: %
measurement: 44.1

Task: Item under review: Cn1ccc2c(c1=O)C(=O)c1nccc3c1c-2nc1ccccc13 . Reported growth?
Result: -68.5

Task: What value of measured growth is listed for COc1ccc(NC(=O)CSc2nnc(-c3cc(-c4ccc(S(N)(=O)=O)cc4)nc4ccccc34)n2-c2ccccc2)cc1 ?
Result: 78

Task: Using the record for COc1ccc(/C=N\NC(=O)c2cc(-c3ccc(Br)cc3)n(-c3ccc(S(N)(=O)=O)cc3)n2)cc1 , report its growth.
Result: 18.9

Task: May I ask what growth has been recorded for NC1=NCc2nc3ccccc3c(=O)n2C1 ?
Result: 91.6

Task: For CCOc1c(C#N)nnc2c(C#N)c(NC(=O)c3ccccc3)nn12 , what is its reported growth?
Result: 95

Task: Can you look up the measured growth of CN(C)c1ccc(-c2cc(-c3ccc(Nc4nc(Nc5ccc(Cl)cc5)nc(Nc5ccc(Cl)cc5)n4)cc3)no2)cc1 for me?
Result: 55.9
